assay: Lethal dose upon intraperitoneal administration.; assay type: ADME; details: ip
VALUE_KIND: LD50 (mg/kg)
Unit mg/kg implied. Number only.

Sample O=C(NC1=CC(=O)[C@]2(CO)O[C@@H]2C1=O)c1ccccc1O ; LD50 observed: 50

Values from ChEMBL document CHEMBL1130639
